target_of_assay: Sigma non-opioid intracellular receptor 1 (Cavia porcellus)
Sequence (Q60492 whole entry): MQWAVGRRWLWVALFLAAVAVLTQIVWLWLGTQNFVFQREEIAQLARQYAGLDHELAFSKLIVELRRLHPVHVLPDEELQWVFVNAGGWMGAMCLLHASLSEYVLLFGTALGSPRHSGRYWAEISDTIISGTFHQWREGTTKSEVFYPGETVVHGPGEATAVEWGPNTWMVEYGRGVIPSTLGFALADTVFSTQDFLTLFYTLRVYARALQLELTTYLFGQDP
experimental_details: Displacement of [3H]-(+)-pentazocine from sigma 1 receptor in guinea pig brain membranes after 2 hrs by scintillation counting
pKi: −log10 of the molar value.
reported_property: pKi

COC(=O)CC1Cc2ccccc2C2(CCN(CCCc3ccccc3)CC2)O1 (racemic) :: 7.41
CCCCN1CCC2(CC1)OC(CCO)Cc1ccccc12 (racemic) :: 7.22

I: OCCC1Cc2ccccc2C2(CCN(CCCc3ccccc3)CC2)O1 (racemic)
II: COC(=O)C[C@@H]1Cc2ccccc2[C@H](CCN2CCCCC2)O1 (racemic)
Prompt: In terms of reported pKi, does I or II have the smaller number? Selection: enter the item's label.
Completion: II

a: COC(=O)C[C@@H]1Cc2ccccc2[C@H](CCN2CCC(c3ccccc3)CC2)O1 (racemic)
b: COC(=O)C[C@@H]1Cc2ccccc2[C@H](CN2CCC(c3ccccc3)CC2)O1 (racemic)
Prompt: Looking only at measured pKi, which entry is lower, a or b ? Kindly state the label of the option you pick.
Completion: b

----------
experimental_details: Selectivity ratio of Ki for sigma 2 receptor in rat liver membranes to Ki for sigma 1 receptor in guinea pig brain membranes
Format: cell membranes
reported_property: Ratio Ki

The examples below pair each entry with its known result.
COC(=O)C[C@@H]1Cc2ccccc2[C@H](CCN2CCC(c3ccccc3)CC2)O1 (racemic) :: 2.8
COC(=O)C[C@@H]1Cc2ccccc2[C@H](CN2CCC(c3ccccc3)CC2)O1 (racemic) :: 1.2
COC(=O)CC1Cc2ccccc2C2(CCN(CCCc3ccccc3)CC2)O1 (racemic) :: 15
CCCCCCCCN1CCC2(CC1)OC(CCO)Cc1ccccc12 (racemic) :: 9

1: OCC[C@@H]1Cc2ccccc2[C@H](CCN2CCC(c3ccccc3)CC2)O1 (racemic)
2: OCCC1Cc2ccccc2C2(CCN(CCCc3ccccc3)CC2)O1 (racemic)
Prompt: Among 1 and 2 , whose measured Ratio Ki is the smaller figure? Mark your answer with the label of the selected entry.
Completion: 1
(1: 0.4, 2: 30)

----------
experimental_details: Displacement of [3H]di-o-tolylgluanidine from sigma 2 receptor in rat liver membranes at 1 uM after 2 hrs by scintillation counting
test_parameters: Membrane
reported_property: inhibition (%)

In the examples that follow, each entry is paired with its recorded inhibition.
OCC[C@@H]1Cc2ccccc2[C@H](CCN2CCCCC2)O1 (racemic) :: 14
CCN1CCC2(CC1)OC(CCO)Cc1ccccc12 (racemic) :: 0
COC(=O)C[C@@H]1Cc2ccccc2[C@H](CCN2CCCC2)O1 (racemic) :: 0

I: OCCC1Cc2ccccc2C2(CCN(Cc3ccccc3)CC2)O1 (racemic)
II: CCCCN1CCC2(CC1)OC(CCO)Cc1ccccc12 (racemic)
III: COC(=O)C[C@@H]1Cc2ccccc2[C@H](CN2CCCCC2)O1 (racemic)
Prompt: Arrange by inhibition, high to low. To answer, write out the labels according to the requested order.
Completion: II, III, I

----------
experimental_details: Displacement of [3H]di-o-tolylgluanidine from sigma 2 receptor in rat liver membranes after 2 hrs by scintillation counting
Type: cell membranes, Membrane
pKi: −log10 of the molar value.
reported_property: pKi

COC(=O)C[C@@H]1Cc2ccccc2[C@H](CN2CCC(c3ccccc3)CC2)O1 (racemic) :: 6.11
OCC[C@@H]1Cc2ccccc2[C@H](CCN2CCC(c3ccccc3)CC2)O1 (racemic) :: 7.70
OCCC1Cc2ccccc2C2(CCN(CCCc3ccccc3)CC2)O1 (racemic) :: 6.21

1: Cc1ccccc1NC(=N)Nc1ccccc1C
2: COC(=O)CC1Cc2ccccc2C2(CCN(CCCc3ccccc3)CC2)O1 (racemic)
3: COC(=O)C[C@@H]1Cc2ccccc2[C@H](CCN2CCC(c3ccccc3)CC2)O1 (racemic)
4: CCCCCCCCN1CCC2(CC1)OC(CCO)Cc1ccccc12 (racemic)
Prompt: Hello, I need these entries ordered by pKi, highest reading first. Thanks! Form entry: labels listed in requested order.
Completion: 1, 3, 4, 2
(1: 7.69, 3: 6.97, 4: 6.63, 2: 6.21)
